Data provenance is ChEMBL document CHEMBL3301361.

assay: physchem; settings: pH 7.4 buffer
Rule: solubility thermodynamic under 100 µM gives false (0), otherwise true (1).

Worked examples follow.
Ask: # bool: solubility thermodynamic of C[C@H](Oc1cccc2ncnc(Nc3ccc(OCc4ccccn4)c(Cl)c3)c12)C(=O)N(C)C >= 100 µM
Result: false (0)

Ask: # bool: solubility thermodynamic of O=C(Nc1ccccc1)Nc1ccncc1 >= 100 µM
Result: true (1)

Ask: # bool: solubility thermodynamic of COC(=O)COc1ccc(C(=O)Nc2ccc(F)cc2)cn1 >= 100 µM
Result: false (0)

Ask: # bool: solubility thermodynamic of COCCN(Cc1cc2c(Nc3cccc(Cl)c3F)ncnc2cc1OC)[C@@H](C)C(N)=O >= 100 µM
Result: true (1)

Ask: # bool: solubility thermodynamic of Cc1cc2c(C)cc(=O)oc2c2c1NCCC2 >= 100 µM
Result: false (0)

---
Ask: # bool: solubility thermodynamic of CC(C)Oc1cc(O[C@H](C)c2ccccc2)cc(C(=O)Nc2ccc(C(=O)O)cn2)c1 >= 100 µM
Result: true (1)

====

solubility thermodynamic reference
assay: physchem; conditions: pH 7.4 buffer
Be sure to follow the number with its unit.

Some solved cases for reference:
Ask: # query: solubility thermodynamic of entry CCCNc1nc2ccccc2c(=O)[nH]1
Result: 537 µM

Ask: # query: solubility thermodynamic of entry Cc1c(Oc2ccc(S(C)(=O)=O)cc2F)ncnc1OC1CCN(C(=O)OC(C)C)CC1
Result: 3 µM

Ask: # query: solubility thermodynamic of entry Cc1ccc(C(=O)Oc2ccc(C(O)CNC(C)(C)C)cc2OC(=O)c2ccc(C)cc2)cc1 (centres undefined)
Result: 81.3 µM

Ask: # query: solubility thermodynamic of entry COc1ccccc1C[C@@H](C(=O)O)N1CCC(CN2CCC(Oc3ccc(Cl)c(Cl)c3)CC2)CC1
Result: 263 µM

---
Ask: # query: solubility thermodynamic of entry Cc1ccccc1N(C)c1ccnc(Nc2cc(N3CCOCC3)cc(N3CCOCC3)c2)n1
Result: 30.9 µM

Ask: # query: solubility thermodynamic of entry N#CC1(NC(=O)[C@@H]2CCCC[C@H]2C(=O)N2CCc3[nH]c4ccc(C(F)(F)F)cc4c3C2)CC1
Result: 74.1 µM

Ask: # query: solubility thermodynamic of entry O=C(O)c1ccccc1Cn1nnc(-c2cccc(OCc3ccc4ccccc4n3)c2)n1
Result: 7.8 µM

Ask: # query: solubility thermodynamic of entry COCCCNS(=O)(=O)c1ccc(Nc2nccc(-c3cnc4ccccn34)n2)cc1
Result: 2.4 µM

Ask: # query: solubility thermodynamic of entry N#CC1(NC(=O)[C@@H]2CCCC[C@H]2C(=O)N2CCc3[nH]c4c(OC(F)(F)F)cccc4c3C2)CC1
Result: 123 µM

====

solubility thermodynamic reference
test: physchem; details: pH 7.4 buffer

Some solved cases for reference:
Ask: # query: solubility thermodynamic of entry CC1(C)Oc2ncnc(N)c2N=C1c1ccc([C@H]2CC[C@H](CC(=O)O)CC2)cc1
Result: 118 µM

Ask: # query: solubility thermodynamic of entry c1cc(Nc2ccnc(Nc3cc(N4CCOCC4)cc(N4CCOCC4)c3)n2)c2cn[nH]c2c1
Result: 2.5 µM

Ask: # query: solubility thermodynamic of entry CC(C)(C)OC(=O)N1C[C@@H]2CC[C@H]1CN2c1ncc(OCc2ccc(S(C)(=O)=O)cc2)cn1
Result: 7.1 µM

Ask: # query: solubility thermodynamic of entry CCn1c(SCC(=O)Nc2c(C#N)cnn2-c2ccccc2)nnc1-c1cccs1
Result: 14.1 µM

Ask: # query: solubility thermodynamic of entry COc1cc(OC2CCNCC2)ccc1Nc1ncc(Cl)c(-c2cnc3ccccn23)n1
Result: 30.9 µM

---
Ask: # query: solubility thermodynamic of entry COc1cc2c(Nc3c(Cl)ccc4c3OCO4)ncnc2cc1OCc1ccnc(C#N)c1
Result: 10.2 µM

Ask: # query: solubility thermodynamic of entry C[C@H](CO)Nc1nc(SCc2cccc(F)c2F)nc2[nH]c(=O)cnc12
Result: 3.5 µM

Ask: # query: solubility thermodynamic of entry CC(C)(C)c1cc2nc3c(c(O)n2n1)CN(Cc1ccccc1)C3=O
Result: 25.1 µM

Ask: # query: solubility thermodynamic of entry CN(C)C/C=C/C(=O)Nc1cc2c(Nc3ccc(F)c(Cl)c3)ncnc2cc1O[C@H]1CCOC1
Result: 93.3 µM

Ask: # query: solubility thermodynamic of entry O=C1NCCc2c1[nH]c1ccccc21
Result: 1260 µM

====

assay: physchem; details: octan-1-ol/water, pH 7.4, LogD7.4
logD reference
Keep the answer to the number alone.

Ask: # query: logD of entry CNc1cnc(-c2ccc(F)cc2)n(CC(=O)NC(C(=O)C(F)(F)F)C(C)C)c1=O (stereo not given)
Result: 1.86

Ask: # query: logD of entry CCCc1c(OCc2ccc(-c3nn[nH]n3)cc2OC)ccc(C(C)=O)c1O
Result: 2.8

Ask: # query: logD of entry O=C(NCC12CC3CC(CC(C3)C1)C2)c1ccccc1Br
Result: 4.15

---
Ask: # query: logD of entry COc1ccnc(C[S+]([O-])c2nc3ccc(OC(F)F)cc3[nH]2)c1OC (stereo not given) [PANTOPRAZOLE]
Result: 2

Ask: # query: logD of entry CN(C)CC(O)COc1ccc(Nc2cc(N(CC#N)c3cc(Cl)ccc3Cl)ncn2)cc1 (stereo not given)
Result: 2.1

====

test: in vitro; settings: SD, HW or BN, rat, plasma
fraction unbound at 5 h reference
Keep the answer to the number alone.

Some solved cases for reference:
Ask: # query: fraction unbound at 5 h of entry Cc1csc2c(N3CCN(C(=O)c4ccc(C(C)(C)C)cc4)CC3)ncnc12
Result: 0.0043

Ask: # query: fraction unbound at 5 h of entry COc1ncc(-c2cccc(C#N)c2CCNC(=O)c2ccc(OCCC(F)(F)F)nc2)cn1
Result: 0.139

Ask: # query: fraction unbound at 5 h of entry CCc1nn(C2CCCC2)c2c1CCn1c(-c3cccs3)nnc1-2 [TOFIMILAST]
Result: 0.0477

---
Ask: # query: fraction unbound at 5 h of entry CN1CCN(S(=O)(=O)c2ccc(-c3cnc(N)c(C(=O)Nc4cnccc4CN4CCCC4)n3)cc2)CC1
Result: 0.0988

Ask: # query: fraction unbound at 5 h of entry CC(C)(C)OC(=O)NC[C@H]1CC[C@H](CNC(=O)c2cc(-c3ccc(CN)cc3)nc3ccccc23)CC1
Result: 0.0139

Ask: # query: fraction unbound at 5 h of entry O=C(CC1CCCCCC1)Nc1cccc2c(=O)n([C@H]3CCNC3)ccc12
Result: 0.232

Ask: # query: fraction unbound at 5 h of entry Cc1ccc(C(=O)c2ccc(CC(=O)O)n2C)cc1 [TOLMETIN]
Result: 0.0287

Ask: # query: fraction unbound at 5 h of entry O=C(c1ccc(F)cc1)C1CCN(CCn2c(=O)[nH]c3ccccc3c2=O)CC1 [KETANSERIN]
Result: 0.0064

Ask: # query: fraction unbound at 5 h of entry O=C(NCc1ccc(OC(F)(F)F)cc1)C1c2ccccc2C(=O)N1C1CCOCC1 (centres undefined)
Result: 0.132

====

assay: physchem; settings: octan-1-ol/water, pH 7.4
Each entry belongs to exactly one class, chosen by where its logD falls: category 1 = under 1, category 2 = from 1 up to 2, category 3 = 2 and over

Worked examples follow.
Ask: Any idea which band COc1cc(O)c2c(c1)/C=C/C[C@H](O)[C@H](O)C(=O)/C=C\C[C@H](C)OC2=O is in?
Result: category 2

Ask: Any idea which band O=C1CN=C(c2ccccc2Cl)c2cc([N+](=O)[O-])ccc2N1 is in?
Result: category 3

Ask: Any idea which band O=C1COc2ccc(CNC3CCN(CCN4C(=O)COc5ccc(-c6ccco6)cc54)CC3)nc2N1 is in?
Result: category 3

Ask: Any idea which band CC1(C)CCC(NC(=O)[C@@H](N)CCC(=O)O)CC1 is in?
Result: category 1

Ask: Any idea which band CN1CCN(C2=Nc3cc(Cl)ccc3Nc3ccccc32)CC1 is in?
Result: category 3

Ask: Any idea which band COC(=O)[C@H]1[C@@H](c2ccc(I)cc2)C[C@@H]2CC[C@H]1N2CCCF is in?
Result: category 3

Ask: Any idea which band NC(=NCc1ccc(Cl)cc1)SCCCc1cnc[nH]1 is in?
Result: category 2

Ask: Any idea which band CC(C)Oc1cccc(CC(=O)N2CCC[C@](CC[N+]34CCC(c5ccccc5)(CC3)CC4)(c3ccc(Cl)c(Cl)c3)C2)c1 [NOLPITANTIUM] is in?
Result: category 2

---
Ask: Any idea which band CC(=O)O[C@H]1CC[C@]2(C=O)[C@H]3CC[C@]4(C)[C@@H](C5=CC(=O)OC5)CC[C@]4(O)[C@@H]3CC[C@]2(O)C1 [STROPHANTHIDIN ACETATE] is in?
Result: category 1

Ask: Any idea which band CC(=O)NC1CC2CCCC(C1)N2C(=O)Nc1ccc(Cl)c(C(F)(F)F)c1 (centres undefined) is in?
Result: category 3
